target: BCL6 Micro-tagged protein (BCL6-S-tag fusion protein) (Homo sapiens, UniProt P41182); assay: Small molecule target engagement screening on lysates, micro-tagged BCL6 heated at Tmin; settings: Saturation Binding Equation (One-site total), after 15 minutes, FIG. 39C; read-out: Apparent Equilibrium Dissociation Constant (apparent KD)
readout.label: Kd (nM)
Numbers only, in nM.

Enter measured Kd, system BCL6 Micro-tagged protein (BCL6-S-tag fusion protein) (Homo sapiens, UniProt P41182), for the compound shown: CNC(=O)COc1cc2cc(Nc3nc(N4CCC(C(=O)N(C)C)CC4)ncc3Cl)cc(OC)c2n(C)c1=O [BI-3812] 1.6

###

molecular target: BCL6 Micro-tagged protein (BCL6-S-tag fusion protein) (Homo sapiens, UniProt P41182); construct: expressed in transfected cells; host or cells: HEK293, lysate (1% Triton X-100 in TBS); experiment: Small molecule target engagement screening on lysates, micro-tagged BCL6 heated at Tmin; type: binding; conditions: after 15 minutes, FIG. 39B; read-out: EC50 of target engagement after removal of data points beyond the target saturation dose
readout.label: pEC50
Numbers only, as −log10 of the molar value.

Enter measured pEC50, system BCL6 Micro-tagged protein (BCL6-S-tag fusion protein) (Homo sapiens, UniProt P41182), for the compound shown: `CNC(=O)COc1cc2cc(Nc3nc(N4CCC(C(=O)N(C)C)CC4)ncc3Cl)cc(OC)c2n(C)c1=O` 9.05
